Where do the numbers come from? From patent US20230233569A1.

Target: KRAS G12C (Homo sapiens, UniProt P01116+P62937, G12C)
Sequence (P01116 1-169 isoform P01116-2 G12C): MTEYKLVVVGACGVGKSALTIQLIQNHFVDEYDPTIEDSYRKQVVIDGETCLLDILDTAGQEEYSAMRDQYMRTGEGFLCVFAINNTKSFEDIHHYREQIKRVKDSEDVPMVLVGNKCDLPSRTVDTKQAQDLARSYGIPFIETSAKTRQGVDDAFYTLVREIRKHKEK
Sequence (P62937 whole entry): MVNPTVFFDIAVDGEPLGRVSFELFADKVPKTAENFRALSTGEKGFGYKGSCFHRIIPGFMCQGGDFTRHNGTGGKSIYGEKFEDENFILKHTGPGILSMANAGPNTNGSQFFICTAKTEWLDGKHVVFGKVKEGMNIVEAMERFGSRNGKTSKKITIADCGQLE
Experiment: Disruption of BRAF RBD interaction with Ras (FRET / MOA assay, with Cyclophilin A)
Type: biochemical
Conditions: read-out: KRAS G12C FRET data, IC50
From the text: This protocol may also be executed substituting other Ras proteins or nucleotides. The purpose of this biochemical assay was to measure the ability of test compounds to facilitate ternary complex formation between a nucleotide-loaded K-Ras isoform and Cyclophilin A; the resulting ternary complex disrupts binding to a BRAF^RBD construct, inhibiting K-Ras signaling through a RAF effector. Data is reported as IC50 values. […]
pIC50: −log10 of the molar value.
Parameter pIC50: see the listing below.
endpoint.name: pIC50

[[record]]
compound = "CCn1c(-c2cccnc2[C@H](C)OC)c2c3cc(ccc31)-c1cc(O)cc(c1)C[C@H](NC(=O)[C@H](C(C)C)N(C)C(=O)O[C@H]1CCOC1)C(=O)N1CCC[C@H](N1)C(=O)OCC(C)(C)C2 [Example A209]"
observed_value = "6.00 to 7.00"

[[record]]
compound = "CCN(CC)C1CN(C(=O)N(C)[C@H](C(=O)N[C@H]2Cc3nc(cs3)-c3ccc4c(c3)c(c(-c3cccnc3[C@H](C)OC)n4CC)CC(C)(C)COC(=O)[C@@H]3CCCN(N3)C2=O)C(C)C)C1 [Example A319]"
observed_value = "6.00 to 7.00"

[[record]]
compound = "CCn1c(-c2cccnc2[C@H](C)OC)c2c3cc(ccc31)-c1nc(cs1)C[C@H](NC(=O)[C@H](C(C)C)N(C)C(C)=O)C(=O)N1CCC[C@H](N1)C(=O)OCC(C)(C)C2 [Example A152]"
observed_value = "5.00 to 6.00"

[[record]]
compound = "CCn1c(-c2cccnc2[C@@H]2CCCO2)c2c3cc(ccc31)-c1csc(n1)C[C@H](NC(=O)[C@H](C(C)C)N(C)C(=O)N1CC(N(C)C)C1)C(=O)N1CCC[C@H](N1)C(=O)OCC(C)(C)C2 (atropisomer, axis not shown) [Example A327]"
observed_value = "< 5.00"


----------
target: KRAS WT (Homo sapiens, UniProt P01116+P62937); assay: Ras-Raf disruption / FRET / MOA assay (BRAF RBD); format: biochemical; details: KRAS WT FRET data IC50, Ras-Raf disruption, with Cyclophilin A
Sequence (P01116 1-169 isoform P01116-2 limits assumed, one chain of several): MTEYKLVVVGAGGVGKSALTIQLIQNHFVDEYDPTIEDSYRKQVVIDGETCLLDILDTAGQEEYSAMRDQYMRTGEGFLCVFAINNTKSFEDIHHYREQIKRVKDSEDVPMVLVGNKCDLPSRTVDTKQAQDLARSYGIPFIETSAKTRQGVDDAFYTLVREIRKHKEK
Quick reference: IC50 of the listed items.
endpoint.name: IC50

[[record]]
molecule = "CCn1c(-c2cccnc2[C@H](C)OC)c2c3cc(ccc31)-c1cc(O)cc(c1)C[C@H](NC(=O)[C@H](C1CCCC1)N(C)C(=O)CN(C)C(=O)[C@H]1N[C@H]1C1(OC)CC1)C(=O)N1CCC[C@H](N1)C(=O)OCC(C)(C)C2 (single isomer, unassigned) [Example 322]"
endpoint_name = "IC50"
observed_value = "10 to 100 nM"

[[record]]
molecule = "CCn1c(-c2cccnc2[C@H](C)OC)c2c3cc(ccc31)-c1cc(O)cc(c1)C[C@H](NC(=O)[C@H](C(C)C)N(C)C(=O)C13CCC(CC1)N3C(=O)[C@H]1CN1)C(=O)N1CCC[C@H](N1)C(=O)OCC(C)(C)C2 [Example 202]"
endpoint_name = "IC50"
observed_value = "100 to 1000 nM"

[[record]]
molecule = "CCn1c(-c2cccnc2[C@H](C)OC)c2c3cc(ccc31)-c1cc(O)cc(c1)C[C@H](NC(=O)[C@H](C(C)C)N(C)C(=O)CN(C)C(=O)[C@@]1(C)CN1)C(=O)N1CCC[C@H](N1)C(=O)OCC(C)(C)C2 [Example 256]"
endpoint_name = "IC50"
observed_value = "10 to 100 nM"

[[record]]
molecule = "CCn1c(-c2cccnc2[C@H](C)OC)c2c3cc(ccc31)-c1cc(O)cc(c1)C[C@H](NC(=O)[C@H](C(C)C)N(C)C(=O)CNC(=O)[C@@H]1CN1)C(=O)N1CCC[C@H](N1)C(=O)OCC(C)(C)C2 [Example 147]"
endpoint_name = "IC50"
observed_value = "10 to 100 nM"

